assay: solvent given as SMILES; conditions: in CCCCCC
READOUT: absorption maximum (nm)
Numbers only, in nm.

Known absorption maximum results, listed for orientation:
c1ccc(N2c3ccccc3Sc3cc(-c4cccc5nc6ccccc6cc45)ccc32)cc1 : 407
CC(C)[Si](C#Cc1c2cc3ccccc3cc2c(C#C[Si](C(C)C)(C(C)C)C(C)C)c2nc3cc4c(cc3nc12)C1c2ccccc2C4c2ccccc21)(C(C)C)C(C)C : 675

Would you mind giving absorption maximum for every compound in the list below?
1. O=C1C=C(Nc2cccc(F)c2)C(=O)c2ccccc21
2. N#C/C(=C\c1cc(/C=C(\C#N)c2ccc(C(F)(F)F)cc2)c(-c2ccc(N(c3ccccc3)c3ccccc3)cc2)cc1-c1ccc(N(c2ccccc2)c2ccccc2)cc1)c1ccc(C(F)(F)F)cc1
3. CC(C)(C)c1ccc(-c2nc3c4ccccc4c4ccccc4c3n2-c2ccc(C(C)(C)C)cc2)cc1
4. N#Cc1ccc(-c2ccc3c(c2)c2cc(-c4ccc(C#N)cc4)ccc2c2c3nc(-c3ccc(-c4ccc(N(c5ccccc5)c5ccccc5)cc4)cc3)n2-c2ccccc2)cc1
5. Cc1cc(C)c(B(c2cc3c4c(c(B(c5c(C)cc(C)cc5C)c5c(C)cc(C)cc5C)cc5c4c2CCC5)CCC3)c2c(C)cc(C)cc2C)c(C)c1
6. O=C1C=C(Nc2ccc(F)cc2F)C(=O)c2ccccc21
7. Cc1ccc(/C(C#N)=C/c2cc(/C=C(\C#N)c3ccc(C)cc3)c(-c3ccc(N(c4ccccc4)c4ccccc4)cc3)cc2-c2ccc(N(c3ccccc3)c3ccccc3)cc2)cc1
8. N#Cc1ccc(N)cc1

1: 440; 2: 402; 3: 315; 4: 370.05; 5: 420; 6: 439; 7: 385; 8: 260.99
